experiment: Intracellular half-life of EFdA triphosphate in human; type: in vivo; settings: cells (intracellular; cell type not given), read-out: intracellular half-life of EFdA triphosphate (EFdA-TP) (converted)
value kind: half-life

>>> reported_value("C#C[C@]1(COP(=O)(O)OP(=O)(O)OP(=O)(O)O)O[C@@H](n2cnc3c(N)nc(F)nc32)C[C@@H]1O [EFdA-TP]")
"~108 h"

Every entry's value here was drawn from patent US20260248834A1.
